TARGET OR SYSTEM: EPHB1 (UniProt P54762)
Sequence (P54762 whole entry, looked up): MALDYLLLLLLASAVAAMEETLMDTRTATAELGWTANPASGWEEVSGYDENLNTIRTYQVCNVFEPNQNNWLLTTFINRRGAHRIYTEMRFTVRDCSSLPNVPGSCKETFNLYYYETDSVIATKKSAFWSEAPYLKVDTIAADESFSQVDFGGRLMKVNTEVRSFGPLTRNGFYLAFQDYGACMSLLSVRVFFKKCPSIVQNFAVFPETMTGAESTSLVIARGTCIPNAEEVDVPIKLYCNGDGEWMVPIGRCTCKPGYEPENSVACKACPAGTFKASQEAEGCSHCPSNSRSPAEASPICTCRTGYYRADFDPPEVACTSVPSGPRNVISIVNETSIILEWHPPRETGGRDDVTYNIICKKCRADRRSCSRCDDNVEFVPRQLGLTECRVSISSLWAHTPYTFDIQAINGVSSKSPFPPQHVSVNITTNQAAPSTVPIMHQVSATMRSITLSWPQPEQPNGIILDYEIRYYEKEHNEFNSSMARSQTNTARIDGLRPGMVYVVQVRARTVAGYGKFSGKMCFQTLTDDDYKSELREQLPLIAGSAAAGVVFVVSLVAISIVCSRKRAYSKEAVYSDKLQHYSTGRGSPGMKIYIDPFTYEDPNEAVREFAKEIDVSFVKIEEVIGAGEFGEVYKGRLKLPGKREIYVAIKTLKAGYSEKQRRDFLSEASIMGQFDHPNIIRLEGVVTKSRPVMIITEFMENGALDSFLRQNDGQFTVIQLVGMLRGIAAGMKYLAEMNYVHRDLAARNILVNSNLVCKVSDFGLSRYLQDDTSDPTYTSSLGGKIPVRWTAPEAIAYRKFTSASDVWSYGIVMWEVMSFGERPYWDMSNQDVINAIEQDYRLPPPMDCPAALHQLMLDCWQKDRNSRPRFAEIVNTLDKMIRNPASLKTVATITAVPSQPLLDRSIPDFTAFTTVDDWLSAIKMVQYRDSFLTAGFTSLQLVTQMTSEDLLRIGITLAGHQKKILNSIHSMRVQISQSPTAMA
EXPERIMENT SUMMARY: phosphorylation enrichment, bacterial display (enrichment ratio); higher = better substrate or ligand; peptides without Tyr show the background;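 further: 11-residue human phosphosite peptides and single-mutation variants displayed on the E. coli surface, counted by deep sequencing, each peptide's frequency after selection divided by its frequency in the unselected input library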;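 further: frequency after pTyr selection over input frequency; kinase dosed for 20-30% of maximal phosphorylation in three min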
Mark False for phosphorylation enrichment values under 0.6, and True for everything at or above.

Look over these answered cases.
| SEQUENCE RECORD | TARGET OR SYSTEM | CLASS |
| --- | --- | --- |
| SWKRRYFLLWA [APBB1IP_Y331_R335W] | EPHB1 (UniProt P54762) | False |
| IGVGSYSVCKR [RPS6KA3_Y433] | EPHB1 (UniProt P54762) | False |
| FFVVEYRNQKP [MUC17_Y4332_D4334N_YF] | EPHB1 (UniProt P54762) | True |

// next entry
I'd appreciate it if you could say whether KGLKVYVNGTL [ADGRD1_Y183_E178K] has phosphorylation enrichment at least equal to 0.6. False

###

TARGET OR SYSTEM: Jak2 (UniProt O60674)
Sequence (O60674 whole entry, looked up): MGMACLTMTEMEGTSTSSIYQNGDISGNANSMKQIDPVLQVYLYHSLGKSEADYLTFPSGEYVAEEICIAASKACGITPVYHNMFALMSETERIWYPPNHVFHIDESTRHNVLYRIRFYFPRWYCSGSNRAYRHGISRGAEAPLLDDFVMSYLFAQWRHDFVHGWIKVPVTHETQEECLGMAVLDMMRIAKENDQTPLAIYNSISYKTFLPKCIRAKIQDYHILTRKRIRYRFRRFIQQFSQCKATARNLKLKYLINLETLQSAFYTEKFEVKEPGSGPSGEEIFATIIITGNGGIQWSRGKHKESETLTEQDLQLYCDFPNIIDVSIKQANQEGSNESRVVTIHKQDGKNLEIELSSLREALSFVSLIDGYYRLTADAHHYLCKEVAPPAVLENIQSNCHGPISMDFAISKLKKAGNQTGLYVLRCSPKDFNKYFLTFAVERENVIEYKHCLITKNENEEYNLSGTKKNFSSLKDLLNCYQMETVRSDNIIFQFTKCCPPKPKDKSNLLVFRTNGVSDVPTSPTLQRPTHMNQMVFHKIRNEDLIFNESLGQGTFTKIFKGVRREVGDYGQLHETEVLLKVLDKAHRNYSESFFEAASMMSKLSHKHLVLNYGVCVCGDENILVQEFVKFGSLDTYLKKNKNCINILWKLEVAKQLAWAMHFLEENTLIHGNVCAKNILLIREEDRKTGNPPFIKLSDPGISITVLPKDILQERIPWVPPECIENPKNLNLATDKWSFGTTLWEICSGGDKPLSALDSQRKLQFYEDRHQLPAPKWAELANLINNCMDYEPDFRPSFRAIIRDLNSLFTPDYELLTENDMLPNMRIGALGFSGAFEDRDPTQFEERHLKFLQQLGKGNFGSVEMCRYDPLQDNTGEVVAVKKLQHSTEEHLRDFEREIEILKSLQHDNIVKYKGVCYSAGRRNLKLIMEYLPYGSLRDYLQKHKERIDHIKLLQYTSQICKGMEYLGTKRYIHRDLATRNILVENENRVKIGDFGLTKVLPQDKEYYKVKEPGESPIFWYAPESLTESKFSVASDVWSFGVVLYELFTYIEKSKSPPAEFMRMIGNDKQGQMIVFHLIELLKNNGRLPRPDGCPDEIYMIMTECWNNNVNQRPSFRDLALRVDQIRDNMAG
EXPERIMENT SUMMARY: phosphorylation enrichment, bacterial display (enrichment ratio); higher = better substrate or ligand; peptides without Tyr show the background
phosphorylation enrichment: recorded values
# output: bare number, no unit

Worked cases, phosphorylation enrichment given:
| SEQUENCE RECORD | TARGET OR SYSTEM | phosphorylation enrichment |
| --- | --- | --- |
| AGLVQYYMEHH [PTPN11_Y80_E76G] | Jak2 (UniProt O60674) | 0.607 |
| LYSGDCYRIQG [DDR2_Y740_Y740C] | Jak2 (UniProt O60674) | 1.04 |
| YDGKDYIALNE [HLA-A_Y147] | Jak2 (UniProt O60674) | 1.18 |
| YPPTHYIRRVP [SLC4A11_Y820] | Jak2 (UniProt O60674) | 0.76 |
| HRDDGYMPMSP [IRS1_Y612_T608R] | Jak2 (UniProt O60674) | 1.16 |
| EAVSIYQFYGQ [CBLC_Y402_H405Y] | Jak2 (UniProt O60674) | 1.22 |

Return reported phosphorylation enrichment; argument: CTTIHYIFMCN [TP53_Y234_N235I_YF] 0.918

Now the sequence LESILYESSVV [TRPV4_Y91_T89I] 1.23

Now the sequence FIIFIYAMKKK [SLCO1B1_Y645_L643F_YF] 2.04

Now the sequence RLQEDYDHSFF [ESD_Y258_G257D_YF] 1.65

Now the sequence ADRNHYRRYRR [YBX1_Y145_P149R] 0.549

Now the sequence SHMVNYQPYRK [TEX37_Y25_D24N] 0.385

###

TARGET OR SYSTEM: Hck (UniProt P08631)
Sequence (P08631 whole entry, looked up): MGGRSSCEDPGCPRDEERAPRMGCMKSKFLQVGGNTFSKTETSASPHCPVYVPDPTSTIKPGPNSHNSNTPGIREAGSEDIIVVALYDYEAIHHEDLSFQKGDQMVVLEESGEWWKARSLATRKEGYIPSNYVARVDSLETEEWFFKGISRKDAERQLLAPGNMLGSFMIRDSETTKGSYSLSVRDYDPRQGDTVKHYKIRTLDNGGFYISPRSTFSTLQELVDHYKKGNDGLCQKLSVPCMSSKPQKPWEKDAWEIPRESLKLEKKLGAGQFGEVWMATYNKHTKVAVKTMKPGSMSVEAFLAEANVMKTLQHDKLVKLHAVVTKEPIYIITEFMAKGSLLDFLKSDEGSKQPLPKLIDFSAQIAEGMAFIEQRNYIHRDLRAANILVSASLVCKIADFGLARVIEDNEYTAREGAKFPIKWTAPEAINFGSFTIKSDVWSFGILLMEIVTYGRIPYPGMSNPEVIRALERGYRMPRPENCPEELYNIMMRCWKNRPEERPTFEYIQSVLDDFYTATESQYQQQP
EXPERIMENT SUMMARY: phosphorylation enrichment, bacterial display (enrichment ratio); higher = better substrate or ligand; peptides without Tyr show the background
phosphorylation enrichment: recorded values
# output: bare number, no unit

Return reported phosphorylation enrichment; argument: LTERGYSFVTT [ACTA1_Y200] 0.708

Now the sequence CTTIHYIFMCN [TP53_Y234_N235I_YF] 0.331

Now the sequence ARRMEYLASQK [FGFR2_Y616_G613R] 0.333

Now the sequence MRAIIYNSSTA [PLEKHA7_Y243_L241I] 0.501

Now the sequence SSVKLYRVYCD [FGB_Y266_P265L] 0.603

Now the sequence QHNPEYVQQAS [LRRC7_Y1058] 0.69

Now the sequence LYSGDYYRIQG [DDR2_Y740] 10.4

Now the sequence ADYYDYGHGLS [KHDRBS3_Y304] 6.46

Now the sequence LFRFGYANTSE [SI_Y1233_C1229Y_YF] 0.51

Now the sequence YPKAHYHWLVL [APTX_Y214_R213H] 0.501

###

TARGET OR SYSTEM: EPHB2 (UniProt P29323)
Sequence (P29323 whole entry, looked up): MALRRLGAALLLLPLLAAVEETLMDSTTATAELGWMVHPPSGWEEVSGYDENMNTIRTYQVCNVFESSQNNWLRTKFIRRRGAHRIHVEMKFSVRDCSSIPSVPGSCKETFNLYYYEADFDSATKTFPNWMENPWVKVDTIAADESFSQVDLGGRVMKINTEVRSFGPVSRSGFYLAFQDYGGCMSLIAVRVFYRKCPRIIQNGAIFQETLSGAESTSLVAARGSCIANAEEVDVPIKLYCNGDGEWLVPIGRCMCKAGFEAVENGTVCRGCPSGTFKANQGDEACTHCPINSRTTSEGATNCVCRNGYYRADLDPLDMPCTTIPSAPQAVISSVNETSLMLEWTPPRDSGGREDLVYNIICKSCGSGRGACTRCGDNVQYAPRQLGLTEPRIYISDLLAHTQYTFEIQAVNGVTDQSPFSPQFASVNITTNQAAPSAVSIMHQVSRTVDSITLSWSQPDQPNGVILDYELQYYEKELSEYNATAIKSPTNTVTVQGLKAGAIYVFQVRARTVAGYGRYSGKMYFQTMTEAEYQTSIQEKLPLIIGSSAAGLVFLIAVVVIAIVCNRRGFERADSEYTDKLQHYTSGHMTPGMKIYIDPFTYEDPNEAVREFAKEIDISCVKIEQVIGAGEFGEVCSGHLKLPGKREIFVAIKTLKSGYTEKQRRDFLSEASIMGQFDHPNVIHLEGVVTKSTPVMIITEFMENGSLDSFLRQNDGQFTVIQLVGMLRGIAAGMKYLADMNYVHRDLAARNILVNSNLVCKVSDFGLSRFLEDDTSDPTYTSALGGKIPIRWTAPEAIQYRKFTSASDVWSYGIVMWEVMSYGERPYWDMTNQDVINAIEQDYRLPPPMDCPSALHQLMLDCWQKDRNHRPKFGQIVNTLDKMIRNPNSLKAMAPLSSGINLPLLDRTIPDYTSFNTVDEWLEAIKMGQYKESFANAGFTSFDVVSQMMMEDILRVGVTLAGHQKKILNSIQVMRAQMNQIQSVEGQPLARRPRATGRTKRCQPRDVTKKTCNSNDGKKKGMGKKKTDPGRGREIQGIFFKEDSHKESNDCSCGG
EXPERIMENT SUMMARY: phosphorylation enrichment, bacterial display (enrichment ratio); higher = better substrate or ligand; peptides without Tyr show the background
MEASURE: phosphorylation enrichment

Worked cases, phosphorylation enrichment given:
| SEQUENCE RECORD | TARGET OR SYSTEM | phosphorylation enrichment |
| --- | --- | --- |
| YSMGCYEFSLG [HMGCL_Y198_I200F] | EPHB2 (UniProt P29323) | 1.37 |
| SENPKYPEVGD [TMEM43_Y233] | EPHB2 (UniProt P29323) | 0.561 |
| EEQKKYFNATK [SCN5A_Y1494_M1498T_YF] | EPHB2 (UniProt P29323) | 0.479 |
| VKKNRYKDILP [PTPN12_Y64] | EPHB2 (UniProt P29323) | 0.471 |
| FSKQIYKGMVA [PCDH15_Y931_R929Q] | EPHB2 (UniProt P29323) | 0.342 |

Return reported phosphorylation enrichment; argument: EEGENYQKGEQ [CHGB_Y173_R178Q] 0.63

Now the sequence RMETEYGPSVT [MXRA5_Y2717] 0.929

Now the sequence PLDEEYFTLQI [TP53_Y327_G325E] 0.888

Now the sequence LGRTRYQHVTG [MIPEP_Y510] 0.393

Now the sequence HNVPIYEGYGL [ACTA1_Y168_A172G] 41.9

Now the sequence GIKAAYEAELG [LMNA_Y81] 0.507

Now the sequence EAESWYQTKYE [KRT75_Y342] 0.655

Now the sequence LLEGKYEWQEV [CDKN1B_Y74_P69L] 1.43

Now the sequence VPVNGYQPVTA [ROR2_Y824_P828T] 0.414

Now the sequence AHLTEYLSTHY [UQCRC1_Y219_D215H] 0.396

Now the sequence KDYETYQPFQN [CTNND2_Y1157] 7.67

Now the sequence RTLIRYANLGN [BEST1_Y131] 0.666

Now the sequence EGQKIYIDDNN [PIP4K2A_Y246] 0.539

Now the sequence "IPQEEYTATGL" 0.512

###

Tested on: AncSZ
EXPERIMENT SUMMARY: phosphorylation enrichment, bacterial display (enrichment ratio); higher = better substrate or ligand; peptides without Tyr show the background
phosphorylation enrichment: recorded values
# output: bare number, no unit

Worked cases, phosphorylation enrichment given:
| SEQUENCE RECORD | TARGET OR SYSTEM | phosphorylation enrichment |
| --- | --- | --- |
| DWQQEYVLNES [TGM1_Y267_R264Q] | AncSZ | 2.03 |
| VILARYGPAWR [CYP2D6_Y124_F120I] | AncSZ | 1.09 |
| SLHPGYNFRFA [P2RX7_Y291_Y288H_YF] | AncSZ | 0.852 |
| LRAGVYPEKDQ [DNM2_Y626] | AncSZ | 0.754 |
| VPVNGYQPVTA [ROR2_Y824_P828T] | AncSZ | 0.492 |

Return reported phosphorylation enrichment; argument: CTAIHYNFMCN [TP53_Y234_T231A_YF] 0.814

###

TARGET OR SYSTEM: EPHB2 (UniProt P29323)
EXPERIMENT SUMMARY: phosphorylation enrichment, bacterial display (enrichment ratio); higher = better substrate or ligand; peptides without Tyr show the background
Mark Criterion not met for phosphorylation enrichment values under 0.6, and Criterion met for everything at or above.

Look over these answered cases.
| SEQUENCE RECORD | TARGET OR SYSTEM | CLASS |
| --- | --- | --- |
| SLNEEYTKNKT [MSH2_Y563] | EPHB2 (UniProt P29323) | Criterion not met |
| RRNVFYFSFLL [PTEN_Y177_Y174N_YF] | EPHB2 (UniProt P29323) | Criterion met |
| SHMVNYQPYRK [TEX37_Y25_D24N] | EPHB2 (UniProt P29323) | Criterion not met |
| PFDAEYGGGGG [AKR1B10_Y316_N313D] | EPHB2 (UniProt P29323) | Criterion met |
| NFDRVYIYHLR [MYOF_Y1137] | EPHB2 (UniProt P29323) | Criterion met |

I'd appreciate it if you could say whether PGNIVYSSLCG [BCOR_Y90] has phosphorylation enrichment at least equal to 0.6. Criterion met

###

phosphorylation enrichment: recorded values
System: AncSZ
EXPERIMENT SUMMARY: phosphorylation enrichment, bacterial display (enrichment ratio); higher = better substrate or ligand; peptides without Tyr show the background

Worked cases, phosphorylation enrichment given:
| SEQUENCE RECORD | TARGET OR SYSTEM | phosphorylation enrichment |
| --- | --- | --- |
| IRGNMYFENSF [EGFR_Y112_YF] | AncSZ | 0.879 |
| EAESWYQTKYE [KRT75_Y342] | AncSZ | 1.15 |

Return reported phosphorylation enrichment; argument: MKNDLYQTPLH [NFKB1_Y582_R578K] 1.4

Now the sequence HSGVSYYINLC [IGF2R_Y2024_N2020S] 1.59

Now the sequence CTTIHYNFMRN [TP53_Y234_C238R_YF] 1.03

Now the sequence CTLSVYRQLHN [LUZP1_Y1036] 1.1

Now the sequence ISDNAYQFMLT [MYH7_Y162_YF] 1.22
